Examples of molecules with documented Total Percent (incidence rate of AKI at the end of the study) follow.
Tested on: diabetes mellitus patients
Experiment: Acute kidney injury
Type: in vivo, human
Details: share of the 4966 total outcomes

CN(C)C(=N)N=C(N)N    6.64%
N#C[C@@H]1CCCN1C(=O)CNC12CC3CC(CC(O)(C3)C1)C2    6.36%
CC1(C)S[C@@H]2[C@H](NC(=O)[C@H](N)c3ccc(O)cc3)C(=O)N2[C@H]1C(=O)O    5.9%
OC[C@H]1O[C@@H](c2ccc(Cl)c(Cc3ccc(O[C@H]4CCOC4)cc3)c2)[C@H](O)[C@@H](O)[C@@H]1O    5.58%
Cc1ccc([C@@H]2O[C@H](CO)[C@@H](O)[C@H](O)[C@H]2O)cc1Cc1ccc(-c2ccc(F)cc2)s1    5.38%

Given Cn1c(=O)cc(N2CCC[C@@H](N)C2)n(Cc2ccccc2C#N)c1=O , state its recorded Total Percent (incidence rate of AKI at the end of the study).
7.33%

Given CC1=C(C(=O)O)N2C(=O)[C@@H](NC(=O)[C@H](N)c3ccccc3)[C@H]2SC1 , state its recorded Total Percent (incidence rate of AKI at the end of the study).
6.71%

Given CC#CCn1c(N2CCC[C@@H](N)C2)nc2c1c(=O)n(Cc1nc(C)c3ccccc3n1)c(=O)n2C , state its recorded Total Percent (incidence rate of AKI at the end of the study).
5.72%

Given OC[C@H]1O[C@@H](c2ccc(F)c(Cc3cc4ccccc4s3)c2)[C@H](O)[C@@H](O)[C@@H]1O , state its recorded Total Percent (incidence rate of AKI at the end of the study).
5.42%

Given Cc1ccc(-c2cc(C(F)(F)F)nn2-c2ccc(S(N)(=O)=O)cc2)cc1 , state its recorded Total Percent (incidence rate of AKI at the end of the study).
10.72%

These data points were gathered from paper PMC8053501.
